tested on: Hs294T; experiment: Cell proliferation IC50 (Cell Titer Glo); type: cell-based; conditions: Homo sapiens, Hs 294T, 96 h; Hs294T, Melanoma, BRAF V600E Heterozygous; 4 days continuous exposure; read-out: IC50 cell proliferation
metric name: IC50 (µM)

# compound, metric name, measurement units, value reported
measured = [
    ("O=C(Nc1ccc2[nH]nc(-c3ccncc3)c2c1)C1CCN(CC(=O)N2CCN(c3ccc(-c4ncccn4)cc3)CC2)C1 (stereo not shown)", "IC50", "µM", 1.73),
]

---

system: WM-115; experiment: Cell proliferation IC50 (Cell Titer Glo); type: cell-based, human; settings: Homo sapiens, WM-115, 96 h, WM-115, Melanoma, BRAF V600D Heterozygous; 4 days continuous exposure; read-out: IC50 cell proliferation

# compound, IC50
measured = [
    ("O=C(Nc1ccc2[nH]nc(-c3ccncc3)c2c1)C1CCN(CC(=O)N2CCN(c3ccc(-c4ncccn4)cc3)CC2)C1 (stereo not shown)", "< 100 nM"),
]
